# System: Ran GTPase (GTP-bound) - importin-beta complex
# test-details: disruptors of Ran-importin-beta complex formation – biochemical, FRET, CFP-Ran, YFP-importin-beta, homogeneous, primary screen (AID 2216);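 further: 0% = DMSO wells and 100% = Ran loaded with GDP instead of GTP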
# test-conditions: cell-free CFP-Ran/YFP-importin-beta FRET ratio; concentration not given here
The whole screen tested about 300,000 compounds, of which about 3,300 (1.1%) were called active. About 6% were inconclusive and are not listed.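 How the source made its calls: active means more than half of the replicate wells show a fall in the fluorescence ratio signal beyond about 16% (limit read from the data, passing the limit was not always enough); inconclusive means exactly half of the replicate wells pass the set limit; inactive means fewer than half of replicates pass the limit.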 The list comes from a sample in which actives are over-represented; it also holds close analogues and randomly drawn compounds.
I would appreciate it if you answered using one of these outcomes: yes (active), no (inactive)

In: Dear colleague, could you share the recorded outcome for CC(C)Oc1ccc(S(=O)(=O)N2CCOCC2)cc1NC(=O)C1CSC2(C)CCC(=O)N12 (stereo not given) when you have a moment?
Out: no

In: Dear all, I need the recorded test outcome for Cc1cccc(C2c3[nH]c4ccccc4c3CCN2C(=O)c2cc(-c3cccn3C)n[nH]2)n1 (stereo not given) , thank you.
Out: yes

In: Lab log entry: COc1cc(/C=C(\C#N)c2nc3ccccc3[nH]2)ccc1O — outcome as called in the assay?
Out: no

In: For COc1cnn(-c2ccc([N+](=O)[O-])cc2)c(=O)c1Cl , what call appears in the results of this test?
Out: no

In: Hi, sorry to bother you, what did the test record for CN(C)C(CNC(=O)c1cccc(S(=O)(=O)Nc2ccc(Br)cc2)c1)c1ccco1 (stereo not given) ?
Out: no

Next:
In: Field: outcome | Entry: COCc1ccc(C(=O)N2CCc3c([nH]c4ccccc34)C2c2ccccn2)s1 (stereo not given)
Out: no

In: Short answer needed: outcome of this test for COc1ccccc1CCC(=O)OCC(=O)N1CCN(S(=O)(=O)c2ccc(C)cc2C)CC1 ?
Out: no

In: Which result was noted for this molecule in the test: Cc1cccc(N2CCN(C(=O)CCS(=O)(=O)c3ccc4c(c3)NC(=O)C(C)S4)CC2)c1C (stereo not given)
Out: no

In: Please share the test call associated with Cc1sc2nc(CSCC(=O)NC3CCCCC3)[nH]c(=O)c2c1C .
Out: no

In: I would be grateful if you could indicate the recorded call for COc1ccc(NC(=O)CSc2nnc(Cc3ccccc3)c(=O)n2N)cc1 .
Out: no

###

# Tested on: Ran GTPase (GTP-bound) - importin-beta complex
# test-details: disruptors of Ran-importin-beta complex formation – biochemical, FRET, CFP-Ran, YFP-importin-beta, homogeneous, primary screen (AID 2216);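 further: 0% = DMSO wells and 100% = Ran loaded with GDP instead of GTP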
# test-conditions: cell-free CFP-Ran/YFP-importin-beta FRET ratio; stronger effect = higher value; concentration not given here
The whole screen tested about 300,000 compounds, of which about 3,300 (1.1%) were called active. Roughly 6% stayed inconclusive and do not appear here. The full list was thinned out, with actives kept by preference.
quantity: inhibition (%)
Give bare numbers, in %.

Solved entries:
In: Looking for the measured inhibition of CCOC(=O)CCCN1CC(O)=C(c2nc3ccccc3s2)C1=N , can you help?
Out: -2.49

In: So what does the record say about inhibition for COc1ccc(-c2cc(C(=O)Nc3ccccc3O)c3ccccc3n2)cc1 ?
Out: 5.76

In: What value of measured inhibition is listed for COc1ccccc1C(=O)NCCC(=O)NCC(c1ccco1)N1CCCCC1 (stereo not given) ?
Out: 2.56

In: Query: inhibition; subject: CC(=O)NC(CC(=O)Nc1cccc(S(=O)(=O)N2CCCC2)c1)c1ccccc1 (stereo not given)
Out: 0.238

Look up inhibition for the entries below, preserving their order.
1. O=C(Nc1ccccc1-c1ccccc1)c1cccs1
2. O=C(CN1C(=O)CC(c2ccccc2)S(=O)(=O)c2ccccc21)NC1CCCC1 (stereo not given)
3. COc1ccc(N=Nc2ccc(O)c(P(=O)(c3ccccc3)c3ccccc3)c2)cc1
4. O=C(Nc1ccccc1-c1nc2ccccc2[nH]c1=O)c1cccs1
5. O=C(c1ccc(F)c(S(=O)(=O)N2CCOCC2)c1)N(CCc1ccccc1)Cc1ccccc1
6. CCc1noc(C)c1C(=O)NNC(=O)c1ccc(F)cc1
7. CCOc1ccc2nc(N3CCCN(C(=O)Nc4ccccc4C)CC3)c(C#N)cc2c1

Out:
[22.1, 0.0598, -0.168, -0.663, 7.49, 3.18, 119]

Dear reader, for each entry below, please note its inhibition.
1. N=c1oc2ccccc2cc1C(=O)N/N=C/c1ccccc1
2. C/C=C/c1ccc(OCC(=O)OCC(=O)Nc2c(C)nn(-c3ccccc3)c2C)c(OC)c1
3. Cc1cc(-c2nnc(SCC(=O)Nc3ccc(S(N)(=O)=O)cc3)n2N)n[nH]1
4. CCOC(=O)c1cc(C#N)c(N2CCCCC2)nc1-c1ccccc1
5. CCOC(=O)C1(Cc2ccccc2C)CCCN(C(=O)c2ccc(COC)o2)C1 (stereo not given)
6. CCC(=O)OCCNc1nc(-c2ccccc2)nc2ccccc12
7. Cc1ccc(-c2nc3ccccc3[nH]c2=O)cc1

Out:
[3.47, 1.88, 0.809, -3.84, -3.09, -0.305, 3.42]

Report inhibition for every entry below.
1. O=C(/C=C/c1ccc([N+](=O)[O-])o1)NNC(=O)c1ccc(F)cc1
2. COc1ccc(CNc2nnnn2C)cc1
3. O=C(NNc1c2ccccc2nc2ccccc12)c1cc2ccccc2cc1O
4. OCc1ccc(-c2ccccc2)c(-c2ccccc2)c1
5. Fc1ccc(CNc2nc3ccccc3n3nnnc23)cc1
6. Nc1nonc1-c1nc2ccccc2n1Cc1ccc(F)cc1
7. CCOC(=O)c1cc2ccccc2n1CC(=O)c1ccccc1

Out:
[-0.948, 0.267, 46.1, 3.41, 28.7, 3.99, -1.27]

Would you mind listing inhibition for each of the following molecules?
1. CCN(CC)c1nc(-c2ccccc2)cc(C(F)(F)F)c1C#N
2. COc1ccc(Cl)cc1NC(=O)CN(C)C(=O)c1cc2ccccc2cc1OC

Out:
1: 25.9; 2: 1.71

Please supply inhibition for each of the following items, keeping them in order.
1. O=C(/C(=C/c1cccc(Cl)c1)c1nc2ccccc2[nH]1)c1ccccc1
2. Cc1ccc(C2=C/C(=C\c3cccnc3)C(=O)O2)cc1
3. COc1ccc(CCNc2cc(N3CCN(C(=O)c4ccccc4OC)CC3)ccc2[N+](=O)[O-])cc1OC
4. CC1(C)CC(=O)C=C(Nc2ccccc2)C1
5. O=C(Nc1cccc2ncccc12)C(Cl)(Cl)Cl
6. CCCCN1C(N)=NC[C@@H]1Cc1ccccc1
7. CC(=O)c1ccc(-c2ccc(Cn3c(C)nc4cc(N)c(C)nc43)cc2)cc1

Out:
2.15
8.88
3.89
11.7
-1.34
-2.74
27.1

Respectfully, I request inhibition for each entry included below.
1. COCC1CCN(C(=O)c2ccc3oc(Cc4ccccc4)nc3c2)C1 (stereo not given)
2. CC1CC(=O)N(CC(=O)Nc2cccc(Cl)c2)c2ccccc2S1(=O)=O (stereo not given)
3. CCCCCCCNC(=O)C1(CC2CC(c3cccc(Br)c3)=NO2)CCN(C(=O)c2cc(OCC)c(OCC)c(OCC)c2)CC1 (stereo not given)
4. Cc1ccc(OCC(=O)Oc2ccccc2[N+](=O)[O-])cc1

Out:
1: 1.03; 2: 18.5; 3: -1.08; 4: 0.472

For each entry beneath this line, provide reported inhibition.
1. CC(=O)Nc1ccc(Nc2c3ccccc3nc3ccccc23)cc1
2. Cc1sc2ncnc(N3CCC(C(=O)Nc4nc5ccc(Cl)cc5s4)CC3)c2c1C
3. COc1cccc(/C=C2\C=C(c3ccc(C)cc3)OC2=O)c1OC(C)=O
4. CCOC(=O)c1oc2c(CN3CCN(CCO)CC3)c(O)c(CC)cc2c(=O)c1-c1nc2ccccc2s1
5. CC(OC(=O)c1ccc(-n2cnnn2)cc1)C(=O)NCc1ccccc1 (stereo not given)
6. COCc1cc(=O)n2[nH]c(C)c(-c3ccccc3)c2n1
7. N=c1oc2ccccc2cc1C(=O)NCc1ccccc1

Out:
1: 52.8; 2: 2.82; 3: 20.6; 4: 16.5; 5: 3.57; 6: 1.2; 7: 2.48

###

# Tested on: Ran GTPase (GTP-bound) - importin-beta complex
# test-details: disruptors of Ran-importin-beta complex formation – biochemical, FRET, CFP-Ran, YFP-importin-beta, homogeneous, primary screen (AID 2216);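 further: 0% = DMSO wells and 100% = Ran loaded with GDP instead of GTP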
# test-conditions: cell-free CFP-Ran/YFP-importin-beta FRET ratio; concentration not given here
In all, about 300,000 compounds went through this assay and about 3,300 (1.1%) were called active. Roughly 6% stayed inconclusive and do not appear here.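 The calls were made as follows: active = more than half of the replicate wells show a fall in the fluorescence ratio signal beyond about 16% (limit read from the data, passing the limit was not always enough); inconclusive = exactly half of the replicate wells pass the set limit; inactive = fewer than half of replicates pass the limit.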 This is one part of a sample in which actives are shown more often than they occur.
Response enum: active, inactive

In: Outcome? CCc1cccc(NC(=O)COC(=O)C2CCN(c3ccc(C(F)(F)F)cn3)CC2)c1
Out: inactive

In: Hi team, can someone confirm the assay call for Cc1ccc2c(C)c(C(=O)N3CCN(c4ccncc4)CC3)oc2c1C ?
Out: inactive

In: Lab log entry: Cc1ccc(-c2csc(NC(=O)C3=COCCO3)n2)cc1C — outcome as called in the assay?
Out: inactive

In: Query: recorded result category for COc1cccc(C(=O)N/N=C(\C)c2cccc(NC(=O)c3ccc(F)cc3)c2)c1OC in this test
Out: inactive

In: Returns: the outcome recorded for Cc1cc(C)c(C)c(S(=O)(=O)N2CCN(C(=O)c3ccc4c(=O)n5c(nc4c3)CCC5)CC2)c1C in this assay.
Out: inactive

In: Could you check what this test reported for COc1cc(/C=N/O)ccc1OCc1ccc([N+](=O)[O-])cc1 ?
Out: inactive

In: // return assay outcome for COc1ccc(CN2[C@@H](CC(=O)O)c3cc(F)ccc3S2(=O)=O)cc1
Out: inactive

In: Record request — test call for COc1ccc2nc(N3CCCC(O)C3)c(C#N)cc2c1 (stereo unspecified)
Out: active

In: Assay result, entry O=C(Nc1ccccc1N1CCCC1)c1ccc(F)c(S(=O)(=O)N2CCOCC2)c1 — outcome?
Out: inactive

In: I would be grateful if you could indicate the recorded call for O=C(Cc1ccc(Br)cc1)NCCc1ccccc1 .
Out: inactive

Would you kindly look at the next entry?
In: # outcome recorded in this test, key = O=C(COc1cccc2c1CCNC2=O)NC1CCCCC1
Out: inactive
